Target: Human IP6K1 (Homo sapiens, UniProt Q92551)
Construct: GST (N, cleaved yes); made in house; host or cells: C43 E. coli, pGEX-6P-2
Sequence (Q92551 whole entry): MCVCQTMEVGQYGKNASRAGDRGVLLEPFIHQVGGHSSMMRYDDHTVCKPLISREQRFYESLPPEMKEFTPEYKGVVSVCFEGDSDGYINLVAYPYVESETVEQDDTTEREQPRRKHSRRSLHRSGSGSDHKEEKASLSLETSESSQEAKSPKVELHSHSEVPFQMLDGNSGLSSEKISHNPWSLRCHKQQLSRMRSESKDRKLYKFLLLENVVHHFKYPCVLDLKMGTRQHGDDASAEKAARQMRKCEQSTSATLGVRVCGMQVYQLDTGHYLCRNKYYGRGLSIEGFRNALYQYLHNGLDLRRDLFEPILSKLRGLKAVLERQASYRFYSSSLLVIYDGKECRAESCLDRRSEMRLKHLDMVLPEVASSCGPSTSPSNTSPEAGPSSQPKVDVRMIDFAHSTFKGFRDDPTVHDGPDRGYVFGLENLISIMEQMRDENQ
Assay: IP6K1 high-throughput screen of the Sigma LOPAC (ADP-Glo Max, single point);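 further: final compound concentration 10µM in 5% DMSO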
Format: biochemical
Conditions: LOPAC single-point screen, ADP-Glo Max luminescence raw signal per well
Counter-ions that a name gives are not always drawn.
The reader will find reported Raw Signal values listed item by item below.
measured.endpoint: Raw Signal

compound=CN1CC[C@]2(CCN3CCc4c(oc5ccccc45)[C@@H]3C2)N(C)C1=O.Cl val=51307
compound=COC(=O)[C@@H](N)Cc1ccc(O)c(O)c1.Cl val=38457
compound="CC(C)(C)[C@]1(O)CCN2C[C@H]3c4ccccc4CCc4cccc(c43)[C@@H]2C1 [(+)-Butaclamol hydrochloride]" val=54506
compound=Nc1nccc2c1ncn2[C@@H]1O[C@H](CO)[C@@H](O)[C@H]1O val=51727
compound="CCCC(CCC)C(=O)O [Valproic acid sodium]" val=64941
compound="Cc1cccc(C)c1OCC(C)N.Cl (stereo not shown) [Mexiletene hydrochloride]" val=50431
compound="CCCCCCCCCCCCCCCC(=O)NCC(COP(=O)([O-])OCC[N+](C)(C)C)OCC (racemic)" val=63126
compound="Cl.NO [Hydroxylamine hydrochloride]" val=61813
compound=O=c1cc(-c2ccc(O)cc2)oc2cc(O)cc(O)c12 val=54339
compound="CCOC(=O)C1=C(C)NC(C)=C(C(=O)OC)C1c1cccc(Cl)c1Cl (stereo not shown)" val=52611
compound="CCCCCCCCCCCCCCCCCCOCC(COP(=O)([O-])OCC[N+](C)(C)C)OC (stereo not shown)" val=51314
compound=CC(C)[C@@]1(NC(=O)[C@@H]2C=C3c4cccc5[nH]cc(c45)C[C@H]3N(C)C2)O[C@@]2(O)[C@@H]3CCCN3C(=O)[C@H](Cc3ccccc3)N2C1=O val=51436
compound="CCCNC[C@H](O)COc1ccccc1C(=O)CCc1ccccc1.Cl [(S)-(-)-propafenone hydrochloride]" val=52495
compound="C=CCN1CC[C@]23c4c5ccc(O)c4O[C@@H]2/C(=N/N=C2\\CC[C@@]4(O)C6Cc7ccc(O)c8c7[C@@]4(CCN6CC=C)[C@@H]2O8)CC[C@@]3(O)C1C5.Cl.Cl [Naloxonazine dihydrochloride]" val=51290
compound="Cl.Cl.NCCC(=O)NCCc1c[nH]cn1 [Carcinine dihydrochloride]" val=35878
compound="CO/N=C(\\C(=O)N[C@@H]1C(=O)N2C(C(=O)O)=C(COC(C)=O)CS[C@H]12)c1csc(N)n1 [Cefotaxime sodium]" val=53540
compound=CN(C)c1nc(N(C)C)nc(N(C)C)n1 val=69030
compound=CC(=O)C(C)=NO val=66346
compound="Cc1nc(N=Nc2cc(S(=O)(=O)[O-])c3cc([N+](=O)[O-])cc(S(=O)(=O)[O-])c3c2)c(COP(=O)([O-])[O-])c(C=O)c1O.[Na+].[Na+].[Na+].[Na+] [PPNDS tetrasodium]" val=31816

----------
Molecular target: Human IP6K1 (Homo sapiens, UniProt Q92551)
Construct: GST (N, cleaved yes); made in house; host or cells: C43 E. coli, pGEX-6P-2
Test: IP6K1 high-throughput screen of the Sigma LOPAC (ADP-Glo Max, single point);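 further: final compound concentration 10µM in 5% DMSO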
Format: biochemical
Conditions: Sigma LOPAC single-point screen, ADP-Glo Max raw signal per well
Structures can show the parent of a compound that is named as a salt.
measured.endpoint: Raw Signal

compound="CCCCS(=N)(=O)CC[C@H](N)C(=O)O (stereo partly shown)" val=61284
compound="CC[C@@H]1C(=O)OC[C@@H]1Cc1cncn1C [Pilocarpine nitrate]" val=59730
compound=C=C(C)[C@H]1Cc2c(ccc3c2O[C@@H]2COc4cc(OC)c(OC)cc4[C@@H]2C3=O)O1 val=59768
compound=COC(=O)[C@H](NC(=O)c1cc(-c2ccccc2)nc2ccccc12)c1ccccc1 val=57840
compound="N[C@H](CCCCCP(=O)(O)O)C(=O)O [D(-)-2-Amino-7-phosphonoheptanoic acid]" val=62778
compound="NC(N)=NCc1cccc(I)c1.NC(N)=NCc1cccc(I)c1.O=S(=O)(O)O [m-Iodobenzylguanidine hemisulfate]" val=60474
compound=COc1ccccc1NC(=O)Nc1nc(-c2cccnc2)nc2ccccc12 val=58097
compound=O=C(CCc1ccc(O)cc1)c1c(O)cc(O)cc1O val=58655
compound="CC[C@@H]1C(=O)OC[C@@H]1Cc1cncn1C.Cl [(+)-Pilocarpine hydrochloride]" val=57845
compound="CC[C@@H](CO)NC(=O)[C@@H]1C=C2c3cccc4[nH]cc(c34)C[C@H]2N(C)C1 [Methylergonovine maleate]" val=56663
compound=C[C@@]12C(=O)OC(=O)[C@]1(C)[C@H]1CC[C@@H]2O1 val=61165
compound="N[C@H](C(=O)O)c1cc(O)no1 (racemic) [(±)-Ibotenic acid]" val=57640
compound=CCCn1c(=O)c2[nH]c(-c3ccc(OCC(=O)NCCN)cc3)nc2n(CCC)c1=O val=61437
